- TEST SYSTEM: interaction between Bcl-2 and Bax (Homo sapiens, UniProt P10415)
- Construct: expressed in transfected cells; host or cells: Hela cells
- Sequence (P10415 whole entry): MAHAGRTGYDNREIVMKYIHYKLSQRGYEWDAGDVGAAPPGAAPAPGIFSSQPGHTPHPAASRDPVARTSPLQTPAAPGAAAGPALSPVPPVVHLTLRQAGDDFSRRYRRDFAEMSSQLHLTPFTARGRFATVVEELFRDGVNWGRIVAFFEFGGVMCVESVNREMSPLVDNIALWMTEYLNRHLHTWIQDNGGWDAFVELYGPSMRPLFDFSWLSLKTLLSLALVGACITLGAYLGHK
- ASSAY NOTES: Intracellular FRET, Bcl-2-CFP/Bax-YFP in Hela cells
- Assay type: cell-based
- CONDITIONS USED: at the concentration given
ENDPOINT NAME: Time (time period after which the interaction between Bcl-2 and Bax was interfered) (h)

Known Time (time period after which the interaction between Bcl-2 and Bax was interfered) results, listed for orientation:
- COMPOUND: "CCC(C)c1ccc(Oc2ccc3c4c(cccc24)C2=NC(=O)C(C#N)=C23)cc1 (centres unmarked) [Compound 13]"
  READING UNIT: "h"
  TEST VALUE: 4
- COMPOUND: "CC(C)Cc1ccc(Oc2ccc3c4c(cccc24)C2=C(C#N)C(=O)N=C23)cc1 [Compound 16]"
  READING UNIT: "h"
  TEST VALUE: 3
- COMPOUND: "CC(C)c1ccc(Oc2ccc3c4c(cccc24)C2=NC(=O)C(NCCCc4ccccc4)=C23)cc1 [Compound 12]"
  READING UNIT: "h"
  TEST VALUE: 1

P: CC(C)Cc1ccc(Oc2ccc3c4c(cccc24)C2=NC(=O)C(C#N)=C23)cc1 [Compound 15]
Q: O=C1N=C2C(=C1NCCCc1ccccc1)c1cccc3cccc2c13 [Compound 3]
Ask: Min Time (time period after which the interaction between Bcl-2 and Bax was interfered)? P | Q Your answer should be the label of the entry you select.
Reply: Q
(Q: 2 h, P: 4 h)
